Cited source: the supplement of paper PMC3334620

Target: Msn1 (UniProt P22148)
Sequence: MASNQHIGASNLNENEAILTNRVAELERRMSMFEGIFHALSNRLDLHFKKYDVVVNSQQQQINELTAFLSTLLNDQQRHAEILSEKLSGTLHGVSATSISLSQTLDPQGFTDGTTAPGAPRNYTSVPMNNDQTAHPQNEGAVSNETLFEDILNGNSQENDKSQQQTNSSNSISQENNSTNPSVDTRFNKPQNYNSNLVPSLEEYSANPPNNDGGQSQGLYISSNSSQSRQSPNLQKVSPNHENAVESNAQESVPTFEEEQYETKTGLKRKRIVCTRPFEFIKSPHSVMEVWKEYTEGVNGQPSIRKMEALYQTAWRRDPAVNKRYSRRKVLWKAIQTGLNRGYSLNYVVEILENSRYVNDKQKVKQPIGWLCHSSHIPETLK
Experiment: PBM E-score (8-mer binding enrichment) (E-score (-0.5 to 0.5)); higher = stronger / more preferred TF binding
Settings: protein concentration: 200 nM; construct: GST-full length
Over roughly 33,000 sequences, “E-score (-0.5 to 0.5)” has its median near -0.013; the highest 2% begin near 0.3. For the sample, the highest values were picked, then their nearest neighbours and some sequences at random.
OBSERVED_PROPERTY: PBM E-score

- ATATTCGG: 0.11
- GAATTGGC: -0.278
- ACACGGAA: 0.166
- ACTGGGCC: -0.0731
- CCATATTC: -0.0353
- TCATATGA: 0.297
- AAATACCA: -0.0306
- ACATATTC: 0.34
- ATCTTGAG: 0.0323
- ATATATTG: -0.172
- ACATATTG: 0.321

* * *

Target: Msn1 (UniProt P22148)
Sequence: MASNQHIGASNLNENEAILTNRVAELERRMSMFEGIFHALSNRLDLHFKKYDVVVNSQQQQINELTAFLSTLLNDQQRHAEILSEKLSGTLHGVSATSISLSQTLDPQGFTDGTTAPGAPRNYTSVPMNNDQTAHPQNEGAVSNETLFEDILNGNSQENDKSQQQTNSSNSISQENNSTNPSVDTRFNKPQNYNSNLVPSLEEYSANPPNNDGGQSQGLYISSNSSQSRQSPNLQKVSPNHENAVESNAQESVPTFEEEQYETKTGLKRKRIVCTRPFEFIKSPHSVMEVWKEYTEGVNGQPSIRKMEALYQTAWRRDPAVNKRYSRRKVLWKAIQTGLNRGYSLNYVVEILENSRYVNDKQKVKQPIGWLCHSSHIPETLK
Experiment: PBM E-score (8-mer binding enrichment) (E-score (-0.5 to 0.5)); higher = stronger / more preferred TF binding
Settings: protein concentration: 200 nM; construct: GST-full length
Over roughly 33,000 sequences, “E-score (-0.5 to 0.5)” has its median near -0.013; the highest 2% begin near 0.3. The sample as a whole holds a higher share of the highest values than the screen did.
Please note: fulfilled applies when PBM E-score is 0.01 or greater, and not fulfilled applies otherwise.

- GAGCCCTC: not fulfilled
- AATACCTG: not fulfilled
- GCTCTCAC: not fulfilled
- AAAGACAT: fulfilled
- CGCAATAA: fulfilled
- CTTATGAC: fulfilled
- AAGTGATA: not fulfilled
- ACTGAAGA: fulfilled
- AGTTGTGA: fulfilled
- TAAGATAA: fulfilled
- ACAAATAG: fulfilled
- AATGGCCT: not fulfilled
- ACTAGGAG: not fulfilled
- CGGTCGCA: not fulfilled
- ATTATGTC: fulfilled
- CAAGACAG: fulfilled
- GCCCAGAA: fulfilled
- GATCTTAC: not fulfilled
- ACTAGGAC: fulfilled
- CCCCAATC: not fulfilled
